Molecular target: UniProtKB P30405
Sequence (P30405 30-207): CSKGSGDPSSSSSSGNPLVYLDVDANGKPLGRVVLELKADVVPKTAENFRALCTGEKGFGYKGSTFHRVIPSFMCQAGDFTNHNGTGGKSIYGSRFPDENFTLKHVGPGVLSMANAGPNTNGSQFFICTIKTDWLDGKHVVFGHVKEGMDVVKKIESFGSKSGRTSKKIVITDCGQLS
Test: Inhibitor binding to cyclophilin proteins by SPR, CypF
Conditions: 1:1 binding model
Starred links: 1 amine or outer side, 2 acyl side, 3 side chain; linkers in the order of their positions; H or OH if unused. Non-standard residues stand in square brackets, D forms with d. Residues, ends and D or L forms follow the SMILES beside them. X27 = C[C@H](COCC(=O)N1CCN(C2CCOCC2)CC1)[C@@H](C(=O)[*:2])N(C)[*:1]; MeBmt = C/C=C/C[C@@H](C)[C@@H](O)[C@H](NC)C(=O)O; NMeL = CN[C@@H](CC(C)C)C(=O)O; NMeV = CN[C@H](C(=O)O)C(C)C; dNMeA = CN[C@H](C)C(=O)O; Abu = CC[C@H](N)C(=O)O
Measure Name: CypF Kd (nM)
Hi! Could you send only the number? It should be in nM, unit omitted.

Bench note: what CypF Kd did C/C=C/C[C@@H](C)[C@@H](O)[C@H]1C(=O)N[C@@H](CC)C(=O)N(C)[C@H](C)C(=O)N(C)[C@@H]([C@H](C)COCC(=O)N2CCN(C3CCOCC3)CC2)C(=O)N[C@@H](C(C)C)C(=O)N(C)[C@@H](CC(C)C)C(=O)N[C@@H](C)C(=O)N[C@H](C)C(=O)N(C)[C@@H](CC(C)C)C(=O)N(C)[C@@H](CC(C)C)C(=O)N(C)[C@@H](C(C)C)C(=O)N1C [Compound 2.6.2] (cyclo([MeBmt][Abu][dNMeA][X27]V[NMeL]A[dA][NMeL][NMeL][NMeV])) show?
0.6

meta.source: patent US9566312B2
